FYI, the data here is from PubChem BioAssay (NCI).

# assay_details: NCI Yeast Anticancer Drug Screen. Data for the mgt1 strain (AID 153)
# stated_conditions: S. cerevisiae mgt1 mutant growth inhibition; at 3.7 µM; hits give high values
Compounds without any hit were thinned out: in the full panel of roughly 79,000, 15% have a hit.
parameter: growth inhibition (%)
Give the value in % but do not write % after it.

// solved cases for growth inhibition follow
{"compound": "N#CC(C#N)=NNc1ccc(S(=O)(=O)O)cc1", "growth inhibition / %": 1}
{"compound": "CCOC(=O)c1[nH]cc(C)c1-c1cccn1-c1ccc(Cl)cc1[N+](=O)[O-]", "growth inhibition / %": 17}
{"compound": "Cc1ccc2c3ccc4c(c3n(C)c2c1)C(=O)C=CC4=O", "growth inhibition / %": 11}

Report growth inhibition, nothing else, for this compound: `COC(=O)Nc1cn2ccc(C(Cl)=C(Cl)Cl)cc2n1` -17

Report growth inhibition, nothing else, for this compound: Cc1ccc2c(c1)C1(SC(C)C(=O)N1c1ccc(Cl)cc1)C(=O)N2 (stereo not given) -6

---

# assay_details: NCI Yeast Anticancer Drug Screen. Data for the mlh1 strain (AID 171);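 also: 0% = growth of vehicle-treated control cultures of the same strain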
# stated_conditions: S. cerevisiae mlh1 strain growth inhibition; at 100.0 µM
# Protocol: Growth inhibition of yeast strains with defined genetic alterations is measured as a screen for potential anti-cancer activity. Selected strains with alterations in DNA damage repair or cell cycle control were exposed to compounds and growth inhibition was measured relative to vehicle treated controls. The strain used in this assay is mlh1
Compounds without any hit were thinned out: in the full panel of roughly 79,000, 15% have a hit. The source made the active and inactive calls. No stated cut-off is given here; in the data, active means growth inhibition above about 70%; inactive means the rest.
Response enum: 1 = active, -1 = inactive

{"molecule": "c1ccc(-c2cnc3ccccc3c2)cc1", "group_label": 1}
{"molecule": "Cc1cc(N(CCOS(C)(=O)=O)CCOS(C)(=O)=O)ccc1C=Nc1ccc(-c2nc(Cc3ccccc3)sc2C)cc1", "group_label": 1}
{"molecule": "C[CH2][Sn]([CH2]C)([O]C(=O)C(N)Cc1ccccc1)[O]C(=O)C(N)Cc1ccccc1 (centres undefined)", "group_label": -1}
{"molecule": "COc1cc(C2SCC(=O)N2c2ccc(-c3ccc(-n4c(-c5ccccc5)nc5ccccc5c4=O)cc3)cc2)ccc1O (centres undefined)", "group_label": -1}
{"molecule": "CN(C)CCNc1ccc2ncnc3c2c1C(=O)c1ccccc1-3", "group_label": -1}
{"molecule": "Oc1cccc2cc(Cl)cnc12", "group_label": 1}
{"molecule": "O=C(NNc1ccccc1)C(O)C(O)C(O)C(O)C(O)CO (centres undefined)", "group_label": 1}
{"molecule": "CN(C)c1ccc2c(SCC(=O)OCC(=O)[C@@]3(O)CC[C@H]4[C@@H]5CCC6=CC(=O)C=C[C@]6(C)[C@H]5C(=O)C[C@@]43C)c3ccc(N(C)C)cc3nc2c1", "group_label": 1}

Hey, what did the test say about COc1cccc2c1C(=O)c1c(O)c3c(c(O)c1C2=O)CC(O)(C(O)CO)CC3OC1CC(N2CCOCC2)C(O)C(C)O1 (centres undefined) ? 1

---

# assay_details: NCI Yeast Anticancer Drug Screen. Data for the wt1 strain (AID 149);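 also: 0% = growth of vehicle-treated wt1 cultures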
# stated_conditions: S. cerevisiae wt1 strain (SPY 50644) growth inhibition; at 1.2 µM; hits give high values
Compounds without any hit were thinned out: in the full panel of roughly 79,000, 15% have a hit.
Overview of recorded growth inhibition for various molecules
Give the value in % but do not write % after it.

// solved cases for growth inhibition follow
{"molecule": "COc1ccc(C/C=N/Nc2ccc([N+](=O)[O-])cc2)cc1OC", "unit_of_measurement": "%", "growth inhibition": 4}
{"molecule": "CC1=C(SCc2ccccc2)C(=O)c2ccccc2C1=O", "unit_of_measurement": "%", "growth inhibition": -15}
{"molecule": "CCCCOP(=O)(CCCP(=O)(OCCCC)OCCCC)OCCCC", "unit_of_measurement": "%", "growth inhibition": -3}
{"molecule": "C[C](C)(C)[Ge]([O][Ge]([c]1ccccc1)[c]1ccccc1)([O][Ge]([c]1ccccc1)[c]1ccccc1)[C](C)(C)C", "unit_of_measurement": "%", "growth inhibition": -3}
{"molecule": "CC(=O)Nc1ccc(/C=C/[N+](=O)[O-])cc1", "unit_of_measurement": "%", "growth inhibition": -1}

Report growth inhibition, nothing else, for this molecule: `CC1=NOC(=O)/C1=C/c1ccc2c(c1)OCO2` 5

Report growth inhibition, nothing else, for this molecule: CC1CC[C@]2(C(=O)O)CCC3(C)C(=CC(=O)C4[C@@]5(C)CCC(=O)C(C)(C)C5CC[C@]43C)[C@@H]2[C@H]1C (stereo partly specified) 9

Report growth inhibition, nothing else, for this molecule: COc1ccc(NC(=O)CC2SC(=Nc3ccccc3C)NC2=O)c([N+](=O)[O-])c1 (stereo unspecified) -1

Report growth inhibition, nothing else, for this molecule: `O=C(CC(=O)n1nc(-c2ccccc2)c(N=Nc2ccc(Cl)cc2)c1-c1ccccc1)Nc1cccc(Cl)c1` -2
